System: UACC-62 melanoma
experimental.protocol: NCI tumour cell line growth inhibition, 48 h
property: TGI

**Query** Given the compound CCN(CC)CCCNc1nnc(C)c2[nH]c3ccccc3c12 , what is its reported TGI?
**Result** 27.9 µM

**Query** Given the compound O=C1Cc2c(-c3ccccc3)cc(-c3ccc(Cl)cc3)nc2-c2ccccc2N1 , what is its reported TGI?
**Result** > 31 µM

**Query** Given the compound O=c1cccccc1[O-].O=c1cccccc1[O-].O=c1cccccc1[O-].[Dy+3] , what is its reported TGI?
**Result** > 100 µM

**Query** Given the compound NC1CC(n2ccc(=O)[nH]c2=O)OC1C(O)CO (configuration not stated) , what is its reported TGI?
**Result** > 100 µM

**Query** Given the compound O=C1C[C@@]23CCC4(CC2=CCC[C@H]3O1)OCCO4 , what is its reported TGI?
**Result** > 100 µM

**Query** Given the compound CC1=CC(=O)N2[C@H](OC[C@@H]2C(C)C)O1 , what is its reported TGI?
**Result** > 100 µM

**Query** Given the compound O=[N+]([O-])c1cccc(C2=NOC3CCCC23)c1 (configuration not stated) , what is its reported TGI?
**Result** > 100 µM

**Query** Given the compound CSC(=NCCCN=C(NS(=O)(=O)c1ccc(Cl)cc1)SC)NS(=O)(=O)c1ccc(Cl)cc1 , what is its reported TGI?
**Result** > 100 µM

**Query** Given the compound O=C(Cn1c(-c2ccccc2)cc2ccccc21)N1CCOCC1 , what is its reported TGI?
**Result** > 100 µM

**Query** Given the compound CCN(CCCl)c1ccc(NC(=O)c2cc(C(=O)NCCN(C)C)cc(C(=O)Nc3ccc(N(CC)CCCl)cc3)c2)cc1 , what is its reported TGI?
**Result** 27.5 µM

**Query** Given the compound Cc1c(N(Cc2ccccc2)Cc2ccccc2)nc(S(C)(=O)=O)nc1S(C)(=O)=O , what is its reported TGI?
**Result** 3.16 µM

**Query** Given the compound CN1Cc2c(ccc3c2OCO3)[C@@H]2[C@H](O)Cc3cc4c(cc3[C@@H]21)OCO4 , what is its reported TGI?
**Result** > 24 µM

**Query** Given the compound O=C(C[N+]1(c2ccccc2)CCOCC1)c1ccccc1 , what is its reported TGI?
**Result** > 100 µM

**Query** Given the compound CCOC(=O)c1sc2nc(SC)nc3c2c1NCN3c1ccccc1Cl , what is its reported TGI?
**Result** > 100 µM

**Query** Given the compound COc1ccc(-c2cc(=O)c3cc(OC)c(OC)cc3[nH]2)cc1OC , what is its reported TGI?
**Result** > 100 µM

**Query** Given the compound COc1ccc(NC(=S)Nc2cccc(C)n2)cc1 , what is its reported TGI?
**Result** > 100 µM

**Query** Given the compound CC(C)C12CCC3(CCC4C(C)(C(=O)O)CCCC4(C)C3C1)C(CN)C2 (configuration not stated) , what is its reported TGI?
**Result** > 100 µM

**Query** Given the compound CCOC(=O)NC/C=C/CO , what is its reported TGI?
**Result** > 100 µM

**Query** Given the compound CCCCc1c2c(nc3c1CC/C(=C\c1ccccc1)C3=O)CCCC2 , what is its reported TGI?
**Result** 7.04 µM

**Query** Given the compound COc1ccc2c(C=O)c3n(c(=O)c2c1OC)CCc1cc2c(cc1-3)OCO2 , what is its reported TGI?
**Result** > 100 µM

**Query** Given the compound CC(=O)Nc1ccc(C(=O)NN2C(=O)CSC2c2ccccc2)cc1 (configuration not stated) , what is its reported TGI?
**Result** > 100 µM

**Query** Given the compound CCOC(=O)N/N=C(/N)Cc1ccc(Cl)cc1 , what is its reported TGI?
**Result** > 100 µM
